Target: T1, hDcn4^P (PONY domain of human DCUN1D4) (Homo sapiens, UniProt Q92564 102-292)
T1 sequence: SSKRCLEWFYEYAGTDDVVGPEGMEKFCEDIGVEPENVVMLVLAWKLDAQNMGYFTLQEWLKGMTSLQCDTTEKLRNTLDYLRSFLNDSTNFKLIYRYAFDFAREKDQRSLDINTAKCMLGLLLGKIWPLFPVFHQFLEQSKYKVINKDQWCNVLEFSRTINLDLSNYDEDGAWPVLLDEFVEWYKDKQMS
Assay: ITC, peptide titrated into Dcn PONY domain
pKd: −log10 of the molar value. Positions of bridges follow the written chain, without caps; N, C: chain ends. Non-standard residues stand in square brackets, D forms with d. S5 = C=CCCC[C@](C)(N)C(=O)O; Nle = CCCC[C@H](N)C(=O)O
ENDPOINT NAME: pKd

>>> test_value("Ac-MIKLFSLKQQKK-NH2 (also called Acetyl-hUbc12^1-12) [hUbc12^Ac1-12]")
4.88
>>> test_value("Ac-MIKLFSLKQQKKEEESAGGTKGSSKK-NH2 (Synthetic peptide of the N-terminus of human Ubc12; also called Acetyl-hUbc12^1-26) [hUbc12^Ac1-26]")
5.00
>>> test_value("Ac-[Nle]LKLR[S5]LQK[S5]KQ-NH2 (staple 6-10; SMILES CCCC[C@H](NC(C)=O)C(=O)N[C@@H](CC(C)C)C(=O)N[C@@H](CCCCN)C(=O)N[C@@H](CC(C)C)C(=O)N[C@@H](CCCNC(=N)N)C(=O)N[C@@]1(C)CCCC=CCCC[C@@](C)(C(=O)N[C@@H](CCCCN)C(=O)N[C@@H](CCC(N)=O)C(N)=O)NC(=O)[C@H](CCCCN)NC(=O)[C@H](CCC(N)=O)NC(=O)[C@H](CC(C)C)NC1=O) [yUbc12^Ac1-12 (NorLeu) 6, 10]")
5.37
